# credit: ChEMBL document CHEMBL5046297

Test: Prodrug conversion in BALB/c mouse colon assessed as tofacitinib AUC(0 to 12 hrs) at 15 mg/kg, po measured upto 12 hrs by LC-MS/MS analysis
Format: ADME, organism-based
Parameters: route oral, dose 15 mg/kg, time <=12
Details: in vivo
measured quantity: AUC (µM·h)
Report the value in µM·h with no unit label.

Can you look up the measured AUC of C[C@@H]1CCN(C(=O)CC#N)C[C@@H]1N(C)c1ncnc2[nH]ccc12.O=C(O)CC(O)(CC(=O)O)C(=O)O [TOFACITINIB CITRATE] for me?
167

* * *

Test: Prodrug conversion in Sprague-Dawley rat colon content suspension assessed as tofacitinib release measured upto 8 hrs by HPLC analysis
Assay type: ADME, tissue-based
measured quantity: Drug metabolism (mmol/L/h)
Report the value in mmol/L/h with no unit label.

Recorded results for 2 molecules are shown here.
COc1cc(/N=N/c2ccc(O)c(C(=O)O)c2)ccc1COC(=O)N(C)CCN(C)C(=O)n1ccc2c(N(C)[C@H]3CN(C(=O)CC#N)CC[C@H]3C)ncnc21 ... 2.44
C[C@@H]1CCN(C(=O)CC#N)C[C@@H]1N(C)c1ncnc2c1ccn2C(=O)N(C)CCN(C)C(=O)OCc1ccc(/N=N/c2ccc(O)c(C(=O)O)c2)c(Cl)c1 ... 2.93

Can you look up the measured Drug metabolism of `Cc1cc(/N=N/c2ccc(O)c(C(=O)O)c2)ccc1COC(=O)N(C)CCN(C)C(=O)n1ccc2c(N(C)[C@H]3CN(C(=O)CC#N)CC[C@H]3C)ncnc21` for me?
2.72

* * *

Assay: Chemical stability in simulated gastric fluid assessed as parent compound remaining incubated for 12 hrs by LC-MS/MS analysis
Type: ADME, physicochemical
Conditions: simulated gi fluid
measured quantity: Stability

C[C@@H]1CCN(C(=O)CC#N)C[C@@H]1N(C)c1ncnc2c1ccn2C(=O)N(C)CCN(C)C(=O)OCc1ccc(/N=N/c2ccc(O)c(C(=O)O)c2)cc1Cl ... Stable
C[C@@H]1CCN(C(=O)CC#N)C[C@@H]1N(C)c1ncnc2c1ccn2CNC(=O)OCc1ccc(/N=N/c2ccc(O)c(C(=O)O)c2)cc1 ... Stable
C[C@@H]1CCN(C(=O)CC#N)C[C@@H]1N(C)c1ncnc2c1ccn2C(=O)N(C)CCN(C)C(=O)OCc1ccc(/N=N/c2ccc(O)c(C(=O)O)c2)cc1 ... Stable

* * *

Assay: Prodrug conversion in BALB/c mouse duodenum assessed as tofacitinib AUC(0 to 12 hrs) at 15 mg/kg, po measured upto 12 hrs by LC-MS/MS analysis
Type: ADME, organism-based
Set-up: route oral, dose 15 mg/kg, time <=12
Conditions: in vivo
measured quantity: AUC (µM·h)
Report the value in µM·h with no unit label.

Can you look up the measured AUC of C[C@@H]1CCN(C(=O)CC#N)C[C@@H]1N(C)c1ncnc2[nH]ccc12.O=C(O)CC(O)(CC(=O)O)C(=O)O [TOFACITINIB CITRATE] for me?
67

* * *

Experiment: Prodrug conversion in Sprague-Dawley rat assessed as Cmax of tofacitinib at 22.5 mg/kg, po measured up to 20 hrs by LC-MS/MS analysis
Assay type: ADME, organism-based
Set-up: route oral, dose 22.5 mg/kg, time <=20
Conditions: in vivo
measured quantity: Cmax (nM)
Report the value in nM with no unit label.

Can you look up the measured Cmax of `C[C@@H]1CCN(C(=O)CC#N)C[C@@H]1N(C)c1ncnc2c1ccn2C(=O)N(C)CCN(C)C(=O)OCc1ccc(/N=N/c2ccc(O)c(C(=O)O)c2)cc1Cl` for me?
2490

* * *

Assay: Prodrug conversion in BALB/c mouse ileum assessed as tofacitinib AUC(0 to 12 hrs) at 22.5 mg/kg, po measured upto 12 hrs by LC-MS/MS analysis
Type: ADME, organism-based
Parameters: route oral, dose 22.5 mg/kg, time <=12
Details: in vivo
measured quantity: AUC (µM·h)
Report the value in µM·h with no unit label.

Can you look up the measured AUC of `C[C@@H]1CCN(C(=O)CC#N)C[C@@H]1N(C)c1ncnc2c1ccn2C(=O)N(C)CCN(C)C(=O)OCc1ccc(/N=N/c2ccc(O)c(C(=O)O)c2)cc1Cl` for me?
357

* * *

Test: Prodrug conversion in Sprague-Dawley rat assessed as Cmax of tofacitinib at 15 mg/kg, po measured up to 12 hrs by LC-MS/MS analysis
Format: ADME, organism-based
Design: route oral, dose 15 mg/kg, time <=12
Settings: in vivo
measured quantity: Cmax (µM)
Report the value in µM with no unit label.

Can you look up the measured Cmax of C[C@@H]1CCN(C(=O)CC#N)C[C@@H]1N(C)c1ncnc2[nH]ccc12.O=C(O)CC(O)(CC(=O)O)C(=O)O [TOFACITINIB CITRATE] for me?
54.9

* * *

Assay: Prodrug conversion in Sprague-Dawley rat colon content suspension assessed as tofacitinib release measured upto 8 hrs by HPLC analysis
Format: ADME, tissue-based
Cut-off 2 mmol/L/h on Drug metabolism, inclusive. At or above means MET; below means NOT MET.

COc1cc(COC(=O)N(C)CCN(C)C(=O)n2ccc3c(N(C)[C@H]4CN(C(=O)CC#N)CC[C@H]4C)ncnc32)ccc1/N=N/c1ccc(O)c(C(=O)O)c1 ... MET
Cc1cc(COC(=O)N(C)CCN(C)C(=O)n2ccc3c(N(C)[C@H]4CN(C(=O)CC#N)CC[C@H]4C)ncnc32)ccc1/N=N/c1ccc(O)c(C(=O)O)c1 ... NOT MET
C[C@@H]1CCN(C(=O)CC#N)C[C@@H]1N(C)c1ncnc2c1ccn2C(=O)N(C)CCN(C)C(=O)OCc1ccc(/N=N/c2ccc(O)c(C(=O)O)c2)cc1 ... MET

Hi, just wondering whether `C[C@@H]1CCN(C(=O)CC#N)C[C@@H]1N(C)c1ncnc2c1ccn2CNC(=O)OCc1ccc(/N=N/c2ccc(O)c(C(=O)O)c2)cc1` shows Drug metabolism of 2 mmol/L/h or higher.
MET

Hi, just wondering whether `C[C@@H]1CCN(C(=O)CC#N)C[C@@H]1N(C)c1ncnc2c1ccn2C(=O)N(C)CCN(C)C(=O)OCc1ccc(/N=N/c2ccc(O)c(C(=O)O)c2)cc1Cl` shows Drug metabolism of 2 mmol/L/h or higher.
MET
